# Test system: KRAS patient-derived spheroids with HUVEC/MSC, viability
# Experimental Protocol: Anticancer human tumor 519858-162-T-J1-PDC patient-derived colon adenocarcinoma cell line growth inhibition [KRAS2]
# Conditions: curve of first compound; second compound 0.316 µM

{"Compound": "CC1COCCN1c1cc(-c2ccnn2C)c2ccnc(-c3ccn[nH]3)c2n1 (configuration not stated) + CNCc1ccccc1-c1csc(C(C)Nc2nc(C)nc3cc(OC)c(OC)cc23)c1", "Unit Name": "µM", "Bound Sign": "=", "IC50": 1.04}
{"Compound": "CCNC(=O)CC1N=C(c2ccc(Cl)cc2)c2cc(OC)ccc2-n2c(C)nnc21 (configuration not stated) + C=CC(=O)N1CCN(c2nc(=O)n(-c3c(C)ccnc3C(C)C)c3nc(-c4c(O)cccc4F)c(F)cc23)C(C)C1", "Unit Name": "µM", "Bound Sign": "=", "IC50": 2.38}
{"Compound": "Cn1ncnc1[C@H]1c2n[nH]c(=O)c3cc(F)cc(c23)N[C@@H]1c1ccc(F)cc1 + CNCc1ccccc1-c1csc(C(C)Nc2nc(C)nc3cc(OC)c(OC)cc23)c1", "Unit Name": "µM", "Bound Sign": ">", "IC50": 0.1}
{"Compound": "CN(C)C/C=C/C(=O)Nc1cc2c(Nc3ccc(F)c(Cl)c3)ncnc2cc1O[C@H]1CCOC1 + CNCc1ccccc1-c1csc(C(C)Nc2nc(C)nc3cc(OC)c(OC)cc23)c1", "Unit Name": "µM", "Bound Sign": ">", "IC50": 0.1}
{"Compound": "CC1COCCN1c1cc(-c2ccnn2C)c2ccnc(-c3ccn[nH]3)c2n1 (configuration not stated) + COc1cc2nc(C)nc(NC(C)c3cc(N)cc(C(F)(F)F)c3)c2cc1OC1CCOC1", "Unit Name": "µM", "Bound Sign": "=", "IC50": 1.22}
{"Compound": "COC(=O)c1ccc2c(C(=Nc3ccc(N(C)C(=O)CN4CCN(C)CC4)cc3)c3ccccc3)c(O)[nH]c2c1 + C=CC(=O)N1CCN(c2nc(=O)n(-c3c(C)ccnc3C(C)C)c3nc(-c4c(O)cccc4F)c(F)cc23)C(C)C1", "Unit Name": "µM", "Bound Sign": ">", "IC50": 10}
{"Compound": "CC(=O)OC12COC1CC(O)C1(C)C(=O)C(O)C3=C(C)C(OC(=O)C(O)C(NC(=O)OC(C)(C)C)c4ccccc4)CC(O)(C(OC(=O)c4ccccc4)C21)C3(C)C (configuration not stated) + C=CC(=O)N1CCN(c2nc(OCC3CCCN3C)nc3c2CCN(c2cccc4cccc(C)c24)C3)CC1CC#N", "Unit Name": "µM", "Bound Sign": ">", "IC50": 3.16}

###

# Test system: KRAS patient-derived spheroids with HUVEC/MSC, viability
# Experimental Protocol: Anticancer human tumor 519858-162-T-J1-PDC cell line growth inhibition [KRAS2];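 note: compound exposure lasted seven days before readout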;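 for viability, T/C: 100% = DMSO vehicle control viability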
# Conditions: second compound 1 µM; first compound 3.16 µM; stronger effect = lower value
Measured viability, T/C, listed per entry for reference.

{"Molecule": "O=C(c1cc(Cc2n[nH]c(=O)c3ccccc23)ccc1F)N1CCN(C(=O)C2CC2)CC1 + CC1OCC2(CCN(c3cnc(Sc4ccnc(N)c4Cl)c(N)n3)CC2)C1N", "Assayed System": "KRAS patient-derived spheroids with HUVEC/MSC, viability", "viability, T/C, %": 66.8}
{"Molecule": "Cn1nccc1Nc1nccc(-c2cc3c(s2)C(C)(C)N(CCN2CCOCC2)C3=O)n1 + COc1cc2nc(C)nc(NC(C)c3cc(N)cc(C(F)(F)F)c3)c2cc1OC1CCOC1", "Assayed System": "KRAS patient-derived spheroids with HUVEC/MSC, viability", "viability, T/C, %": 36.3}
{"Molecule": "COC(=O)c1ccc2c(C(=Nc3ccc(N(C)C(=O)CN4CCN(C)CC4)cc3)c3ccccc3)c(O)[nH]c2c1 + C=CC(=O)N1CCN(c2nc(=O)n(-c3c(C)ccnc3C(C)C)c3nc(-c4c(O)cccc4F)c(F)cc23)C(C)C1", "Assayed System": "KRAS patient-derived spheroids with HUVEC/MSC, viability", "viability, T/C, %": 76}
{"Molecule": "COc1cc2nccc(Oc3ccc(NC(=O)C4(C(=O)Nc5ccc(F)cc5)CC4)cc3)c2cc1OC + C=CC(=O)N1CCN(c2nc(=O)n(-c3c(C)ccnc3C(C)C)c3nc(-c4c(O)cccc4F)c(F)cc23)C(C)C1", "Assayed System": "KRAS patient-derived spheroids with HUVEC/MSC, viability", "viability, T/C, %": 105}
{"Molecule": "CC(=O)OC12COC1CC(O)C1(C)C(=O)C(O)C3=C(C)C(OC(=O)C(O)C(NC(=O)OC(C)(C)C)c4ccccc4)CC(O)(C(OC(=O)c4ccccc4)C21)C3(C)C (stereo not given) + CNCc1ccccc1-c1csc(C(C)Nc2nc(C)nc3cc(OC)c(OC)cc23)c1", "Assayed System": "KRAS patient-derived spheroids with HUVEC/MSC, viability", "viability, T/C, %": 68.5}
{"Molecule": "COc1cc2nccc(Oc3ccc(NC(=O)C4(C(=O)Nc5ccc(F)cc5)CC4)cc3)c2cc1OC + C=CC(=O)N1CCN(c2nc(OCC3CCCN3C)nc3c2CCN(c2cccc4cccc(C)c24)C3)CC1CC#N", "Assayed System": "KRAS patient-derived spheroids with HUVEC/MSC, viability", "viability, T/C, %": 104}
{"Molecule": "Cn1nccc1Nc1nccc(-c2cc3c(s2)C(C)(C)N(CCN2CCOCC2)C3=O)n1 + C=CC(=O)N1CCN(c2nc(OCC3CCCN3C)nc3c2CCN(c2cccc4cccc(C)c24)C3)CC1CC#N", "Assayed System": "KRAS patient-derived spheroids with HUVEC/MSC, viability", "viability, T/C, %": 36.7}
{"Molecule": "COc1cc(Nc2ncc3c(n2)-c2ccc(Cl)cc2C(c2c(F)cccc2OC)=NC3)ccc1C(=O)O + C=CC(=O)N1CCN(c2nc(OCC3CCCN3C)nc3c2CCN(c2cccc4cccc(C)c24)C3)CC1CC#N", "Assayed System": "KRAS patient-derived spheroids with HUVEC/MSC, viability", "viability, T/C, %": 99.8}
{"Molecule": "COC(=O)c1ccc2c(C(=Nc3ccc(N(C)C(=O)CN4CCN(C)CC4)cc3)c3ccccc3)c(O)[nH]c2c1 + COc1cc2nc(C)nc(NC(C)c3cc(N)cc(C(F)(F)F)c3)c2cc1OC1CCOC1", "Assayed System": "KRAS patient-derived spheroids with HUVEC/MSC, viability", "viability, T/C, %": 51}
{"Molecule": "COC(=O)c1ccc2c(C(=Nc3ccc(N(C)C(=O)CN4CCN(C)CC4)cc3)c3ccccc3)c(O)[nH]c2c1 + CNCc1ccccc1-c1csc(C(C)Nc2nc(C)nc3cc(OC)c(OC)cc23)c1", "Assayed System": "KRAS patient-derived spheroids with HUVEC/MSC, viability", "viability, T/C, %": 64.7}

Origin of the recorded values: PubChem BioAssay AID1963872
